# inhibition at 10 µM per record follows
biological target: Sheep seminal vesicle (SSV) cyclooxygenase (Ovis aries); construct: Sheep seminal vesicle (SSV) cyclooxygenase (95% pure); purchased Biomol (Plymouth Meeting, PA); host or cells: sheep seminal vesicle; assay: Procedure I: inhibition of sheep seminal vesicle (SSV) cyclooxygenase; format: biochemical; conditions: 20 min; @ 10 .quadrature.M; SSV cyclooxygenase; read-out: Proc. I % inhibition
Sequence (P05979 25-600): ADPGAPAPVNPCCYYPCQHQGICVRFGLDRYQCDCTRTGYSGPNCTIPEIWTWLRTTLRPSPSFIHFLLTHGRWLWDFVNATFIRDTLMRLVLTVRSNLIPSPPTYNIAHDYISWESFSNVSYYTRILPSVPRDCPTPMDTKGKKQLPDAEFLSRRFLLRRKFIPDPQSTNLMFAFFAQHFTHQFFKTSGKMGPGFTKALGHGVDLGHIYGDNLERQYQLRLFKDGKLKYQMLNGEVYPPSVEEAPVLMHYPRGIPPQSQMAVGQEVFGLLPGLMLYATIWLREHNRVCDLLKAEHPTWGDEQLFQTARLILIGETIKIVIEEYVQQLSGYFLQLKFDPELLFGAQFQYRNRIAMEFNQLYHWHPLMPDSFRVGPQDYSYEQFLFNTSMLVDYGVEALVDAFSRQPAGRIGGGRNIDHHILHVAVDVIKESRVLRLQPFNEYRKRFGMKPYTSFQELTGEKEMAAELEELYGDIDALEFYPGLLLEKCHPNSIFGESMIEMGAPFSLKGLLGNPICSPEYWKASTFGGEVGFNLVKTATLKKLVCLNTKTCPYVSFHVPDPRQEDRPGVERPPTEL
# number then unit; no other words

Known inhibition at 10 µM results, listed for orientation:
COc1ccc(-n2nc(C#CC(C)N(O)C(N)=O)cc2-c2ccc(C)cc2)cc1 (centres unmarked)	10%
CCOC(=O)C(=O)N(O)C(C)C#Cc1cc(-c2ccc(C)cc2)n(-c2ccc(OC)cc2)n1 (centres unmarked)	66%
COc1ccc(-n2nc(C#CCN(O)C(N)=O)cc2-c2ccc(Cl)cc2)cc1	9%
CCC(=O)N(O)CC#Cc1cc(-c2ccc(C)cc2)n(-c2ccc(OC)cc2)n1	79%

Look up inhibition at 10 µM with Sheep seminal vesicle (SSV) cyclooxygenase (Ovis aries) for this compound: "COc1ccc(-n2nc(C#CCN(O)C(C)=O)cc2-c2ccc(C)cc2)cc1"
74%

----------
target: 5-LO (Rattus norvegicus, UniProt P12527); construct: the supernatant was saved as the source of enzymes; endogenous in cells; host or cells: RBL-1 (rat basophilic leukemia) cells; assay: Procedure III: 5-LO (5-HETE) in intact RBL-1 cells; assay type: cell-based; settings: calcium ionophore A 23187, read-out: Proc. III 5-LO IC50
Sequence (P12527 whole entry): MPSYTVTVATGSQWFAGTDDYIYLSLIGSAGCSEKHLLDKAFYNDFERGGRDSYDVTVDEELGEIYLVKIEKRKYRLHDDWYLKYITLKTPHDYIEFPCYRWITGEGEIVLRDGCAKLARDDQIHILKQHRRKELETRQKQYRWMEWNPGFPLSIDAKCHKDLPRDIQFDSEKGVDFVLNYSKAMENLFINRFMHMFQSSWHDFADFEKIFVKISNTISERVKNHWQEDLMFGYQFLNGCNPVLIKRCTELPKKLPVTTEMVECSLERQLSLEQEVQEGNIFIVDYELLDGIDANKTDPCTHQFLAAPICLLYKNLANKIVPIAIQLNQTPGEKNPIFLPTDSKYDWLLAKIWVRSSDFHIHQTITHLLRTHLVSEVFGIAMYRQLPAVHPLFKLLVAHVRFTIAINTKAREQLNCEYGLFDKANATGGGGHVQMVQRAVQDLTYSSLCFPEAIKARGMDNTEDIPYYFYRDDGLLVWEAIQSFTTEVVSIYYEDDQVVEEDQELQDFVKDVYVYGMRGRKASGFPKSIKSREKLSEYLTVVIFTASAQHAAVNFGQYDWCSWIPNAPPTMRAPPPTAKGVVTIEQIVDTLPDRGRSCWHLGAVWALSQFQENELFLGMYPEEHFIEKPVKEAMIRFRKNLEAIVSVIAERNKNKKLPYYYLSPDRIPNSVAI
# IC50 per record follows
# output: bare number, implied unit µM

Known IC50 results, listed for orientation:
CCC(C#Cc1cc(-c2ccc(C)cc2)n(-c2ccc(OC)cc2)n1)N(O)C(C)=O (stereo not drawn) [Cpd 28]	10.7
COC(=O)N(O)C(C)C#Cc1cc(-c2ccc(C)cc2)n(-c2ccc(OC)cc2)n1 (stereo not drawn) [Cpd 27]	7.1

I would be grateful if you could share the reported IC50 for COc1ccc(-n2nc(C#CC(C)N(O)C(N)=O)cc2-c2ccc(Cl)cc2)cc1 (stereo not drawn) [Cpd 6] .
3.5

I would be grateful if you could share the reported IC50 for CCc1ccc(-c2cc(C#CC(C)N(O)C(=O)OC)nn2-c2ccc(OC)cc2)cc1 (stereo not drawn) [Cpd 34] .
57.4

I would be grateful if you could share the reported IC50 for CCC(C#Cc1cc(-c2ccc(C)cc2)n(-c2ccc(OC)cc2)n1)N(O)C(N)=O (stereo not drawn) [Cpd 3] .
21.3

I would be grateful if you could share the reported IC50 for COc1ccc(-n2nc(C#CCN(O)C(=O)c3ccccc3)cc2-c2ccc(C)cc2)cc1 [Cpd 15] .
8

I would be grateful if you could share the reported IC50 for CCCNC(=O)N(O)C(C)C#Cc1cc(-c2ccc(Cl)cc2)n(-c2ccc(OC)cc2)n1 (stereo not drawn) [Cpd 8] .
2.8

I would be grateful if you could share the reported IC50 for COc1ccc(-n2nc(C#CCN(O)C(=O)c3ccncc3)cc2-c2ccc(C)cc2)cc1 [Cpd 16] .
26.6

I would be grateful if you could share the reported IC50 for COc1ccc(-n2nc(C#CC(C)N(O)C(C)=O)cc2-c2ccc(C)cc2)cc1 (stereo not drawn) [Cpd 18] .
13.1

----------
biological target: Sheep seminal vesicle (SSV) cyclooxygenase (Ovis aries); construct: Sheep seminal vesicle (SSV) cyclooxygenase (95% pure); purchased Biomol (Plymouth Meeting, PA); host or cells: sheep seminal vesicle; assay: Procedure I: inhibition of sheep seminal vesicle (SSV) cyclooxygenase; format: biochemical; conditions: 20 min; @ 10 .quadrature.M; SSV cyclooxygenase; read-out: Proc. I % inhibition
Response key: Satisfied means inhibition at 10 µM >= 5%; Not satisfied means inhibition at 10 µM < 5%.

COc1ccc(-n2nc(C#CC(C(C)C)N(O)C(N)=O)cc2-c2ccc(Cl)cc2)cc1 (centres unmarked)	Satisfied
CCOC(=O)CCC(=O)N(O)C(C)C#Cc1cc(-c2ccc(CC)cc2)n(-c2ccc(OC)cc2)n1 (centres unmarked)	Not satisfied
COc1ccc(-n2nc(C#CC(C)N(O)C(=O)N3CCOCC3)cc2-c2ccc(Cl)cc2)cc1 (centres unmarked)	Satisfied
COc1ccc(-n2nc(C#CC(C)N(O)C(=O)CCC(=O)O)cc2-c2ccc(Cl)cc2)cc1 (centres unmarked)	Not satisfied

Reported inhibition at 10 µM reaches at least 5% for CCc1ccc(-c2cc(C#CC(C)N(O)C(=O)CN3CCN(C)CC3)nn2-c2ccc(OC)cc2)cc1 (centres unmarked) ?
Not satisfied

Reported inhibition at 10 µM reaches at least 5% for CCC(C#Cc1cc(-c2ccc(Cl)cc2)n(-c2ccc(OC)cc2)n1)N(O)C(N)=O (centres unmarked) ?
Not satisfied

Reported inhibition at 10 µM reaches at least 5% for CCC(C#Cc1cc(-c2ccc(C)cc2)n(-c2ccc(OC)cc2)n1)N(O)C(N)=O (centres unmarked) ?
Satisfied

Reported inhibition at 10 µM reaches at least 5% for "COC(=O)N(O)CC#Cc1cc(-c2ccc(C)cc2)n(-c2ccc(OC)cc2)n1" ?
Satisfied

Reported inhibition at 10 µM reaches at least 5% for CCCNC(=O)N(O)C(C)C#Cc1cc(-c2ccc(Cl)cc2)n(-c2ccc(OC)cc2)n1 (centres unmarked) ?
Satisfied

// data source = patent US5925769A
